Target: T1, TROP2 antigen (extracellular region of TROP2, expressed in 293F cells) (human, UniProt P09758 27-274)
T1 construct: extracellular domain; The antigen was coated on ELISA plates; For the Octet assay it was biotin-labelled and immobilized on streptavidin sensors; also called TROP2 protein
T1 sequence (looked up): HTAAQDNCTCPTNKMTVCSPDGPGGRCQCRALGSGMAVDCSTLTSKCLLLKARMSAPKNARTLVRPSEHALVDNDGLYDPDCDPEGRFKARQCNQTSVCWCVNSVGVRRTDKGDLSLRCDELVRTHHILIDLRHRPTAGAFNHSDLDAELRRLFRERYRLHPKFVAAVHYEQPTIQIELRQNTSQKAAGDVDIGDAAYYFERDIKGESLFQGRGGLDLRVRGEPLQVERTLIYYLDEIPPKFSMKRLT
Procedure Details: ELISA, TROP2-coated plate, anti-human Fc HRP
Readings of EC50 for the listed binders
Express your answer in µg/mL, writing the number without its unit.

# count of solved cases: 3
binder="7F11 humanized antibody (antibody, V domains shown, also called Hu7F11; hu7F11) VH: QVQLVQSGAEVKKPGASVKVSCKASGYTFTDHVISWVRQATGQGLEWMGQIYPGSDNSYYAQKFQGRVTLTADKSINTAYMELSSLRSEDTAVYYCAREGYGYGKNGVGYAMDYWGQGTLVTVSS VL: DIVMTQSPDSLAVSLGERATINCKASQSVSNDVVWYQQKPGQPPKLLIYYASNRYTGVPDRFSGSGYGTDFTLTISSLQAEDVAVYYCQQDYSSPWTFGGGTKVEIKR" units_symbol=µg/mL observed_result=0.0601
binder="7F11 chimeric antibody (antibody, human IgG1, kappa, V domains shown, The entries begin with a leader (signal) peptide; also called ch7F11) VH: QVQLQQSGPEVVKPGASVKMSCKASGYTFTDHVISWVKQRTGQGLEWIGQIYPGSDNSYYSEKLKDKATLTADKSSNTAYMQLVSLTSEDSAVYFCAREGYGYGKNGVGYAMDYWGQGTSVTVSS VL: SIVMTQTPKFLLVSAGDRVTITCKASQSVSNDVVWYQQKPGQSPKLLIYYASNRYTGVPDRFTGSGYGTDFTFTISTAQAEDLAVYFCQQDYSSPWTFGGGTKLEIKR" units_symbol=µg/mL observed_result=0.061
binder="4D3 humanized antibody (antibody, V domains shown, also called Hu4D3; hu4D3) VH: QVQLVQSGAEVKKPGASVKLSCKASGYTFTSFDINWVRQAPEQRLEWMGWIFPGDGNTKYSQKFQGRATITRDTSASTAYMELSSLRSEDTAVYYCVRGEALYYFDYWGQGTLVTVSS VL: DIQMTQSPSSLSASVGDRVTITCRASQDINKYLAWYQQKPGKVPKLLIYSTSTLQSGVPSRFSGSGSGTDFTLTISSLQPEDVATYYCLQYDDLFTFGQGTKLEIKR" units_symbol=µg/mL observed_result=0.0502

Switching to the query record.
Ask: Return reported EC50; argument: 4D3 chimeric antibody (antibody, human IgG1, kappa, V domains shown, The entries begin with a leader (signal) peptide; also called ch4D3) VH: QVQLQQSGAELVKPGASVKLSCKASGYTFTSFDINWVRQRPEQGLEWIGWIFPGDGNTKSNEKFKGKATLTTDKSSSTAYMQLSRLTSEDSAVYFCVRGEALYYFDYWGPGTTLTVSS VL: DIQMTQSPSSLSASLGGKVTITCKPSQDINKYIAWYQHKPGKGPRLLIHSTSTLQPGIPSRFSGSGSGRDYSFTISNLEPEDIATYYCLQYDDLFTFGSGTKLEIKR
Reply: 0.056
